The reported numbers originate from patent US20250304640A1.

- tested-target: CSF1 receptor (CSF1R) (UniProt P07333)
- Sequence (P07333 20-972 limits assumed): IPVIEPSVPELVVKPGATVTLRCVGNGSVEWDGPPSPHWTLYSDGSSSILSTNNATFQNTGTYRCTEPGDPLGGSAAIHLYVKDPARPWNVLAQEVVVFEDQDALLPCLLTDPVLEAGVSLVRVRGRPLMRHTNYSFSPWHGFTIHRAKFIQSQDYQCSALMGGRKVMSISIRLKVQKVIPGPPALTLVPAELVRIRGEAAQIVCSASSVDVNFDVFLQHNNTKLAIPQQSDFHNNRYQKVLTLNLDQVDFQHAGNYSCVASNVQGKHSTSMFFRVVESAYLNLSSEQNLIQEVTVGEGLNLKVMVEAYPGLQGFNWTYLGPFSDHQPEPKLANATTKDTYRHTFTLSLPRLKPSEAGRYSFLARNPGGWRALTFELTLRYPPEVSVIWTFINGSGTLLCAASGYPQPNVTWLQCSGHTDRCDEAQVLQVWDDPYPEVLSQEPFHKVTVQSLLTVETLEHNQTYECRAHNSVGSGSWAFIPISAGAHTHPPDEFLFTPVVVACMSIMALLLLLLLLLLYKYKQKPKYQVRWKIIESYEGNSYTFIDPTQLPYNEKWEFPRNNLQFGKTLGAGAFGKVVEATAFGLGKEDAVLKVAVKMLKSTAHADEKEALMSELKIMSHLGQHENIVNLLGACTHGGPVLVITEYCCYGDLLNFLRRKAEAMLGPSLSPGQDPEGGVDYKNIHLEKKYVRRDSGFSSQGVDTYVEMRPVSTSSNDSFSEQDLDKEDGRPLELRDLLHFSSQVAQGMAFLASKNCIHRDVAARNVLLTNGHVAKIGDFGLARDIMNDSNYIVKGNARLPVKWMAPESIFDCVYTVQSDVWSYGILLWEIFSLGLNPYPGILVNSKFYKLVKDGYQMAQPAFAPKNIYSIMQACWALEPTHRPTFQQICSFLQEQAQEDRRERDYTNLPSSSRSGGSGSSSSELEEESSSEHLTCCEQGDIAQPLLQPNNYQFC
- assay-remarks: cell-based or functional assay
experimental-readout: EC-50, HEK293 CSF1R/SRE reporter, biological replica 1

Form field: reported EC-50, HEK293 CSF1R/SRE reporter, biological replica 1 of CSF1 V117I (ligand) EEVSEYCSHMIGSGHLQSLQRLIDSQMETSCQITFEFVDQEQLKDPVCYLKKAFLLVQDIMEDTMRFRDNTPNAIAIVQLQELSLRLKSCFTKDYEEHDKACVRTFYETPLQLLEKIKNVFNETKNLLDKDWNIFSKNCNNSFAECSSQD
1e-09

(a) CSF1 A76I, V117L (ligand) EEVSEYCSHMIGSGHLQSLQRLIDSQMETSCQITFEFVDQEQLKDPVCYLKKAFLLVQDIMEDTMRFRDNTPNAIIIVQLQELSLRLKSCFTKDYEEHDKACVRTFYETPLQLLEKLKNVFNETKNLLDKDWNIFSKNCNNSFAECSSQD
(b) CSF1 (wild-type human CSF1) (ligand) EEVSEYCSHMIGSGHLQSLQRLIDSQMETSCQITFEFVDQEQLKDPVCYLKKAFLLVQDIMEDTMRFRDNTPNAIAIVQLQELSLRLKSCFTKDYEEHDKACVRTFYETPLQLLEKVKNVFNETKNLLDKDWNIFSKNCNNSFAECSSQD
Hi, I'm comparing a with b and wondering which one has the bigger number for EC-50, HEK293 CSF1R/SRE reporter, biological replica 1. Any idea? // output: label of the selected item
a
(a: 1.18e-09, b: 4.52e-10)
